# System: MS2 coat protein
# method description: apparent KD of MS2 coat protein; designed switch direction (-1 OFF switch, 1 ON switch): 1; higher = weaker reporter binding
# condition description: input ligand: microRNA oligo, concentration not stated
List of apparent KD of MS2 coat protein values.
// note: answer is a bare numeric in nM

Known results for sequences:
| residue string | apparent KD of MS2 coat protein / nM |
| --- | --- |
| GAGUGGCAGUUAGGAUAUAUAGUGAUAAUCACAAUAGAAGGAACAGACAUGAGGAUCACCCAUGUAGGACUAAUCCAGAGAGAG [Parity 37 - Jieux - Same State NG 1] (Eterna round: R96, puzzle: Same State NG 1) | 16.4 |
| GUUACAUGAGGAUCACCCAUGUAUGUGUGGGAGUAAGUGUCUUAGGAUAUCUAUGAUUUAAGUUAAGAGAAGGAAGAUUGUUGU [JMF's solution 80] (Eterna round: R96, puzzle: Same State NG 3) | 89.5 |
| UGUCGUUGCAGAGGAUAUGGGAACUCGAUGCCGUAAGGUAUCAUAACAUGAGGAUCACCCAUGUCCCAGAAGGCUGCAGCAAGC [Leatve Mod] (Eterna round: R96, puzzle: Same State NG 2) | 94 |
| CGUUCUUACUCAGGACGGAGAGUAGAGGAACAUGAGGAUCACCCAUGUAUGAGCUUUUUGCUCGUGAUUAACAGUAG [JR_SHM208a_Sub013] (Eterna round: R96, puzzle: Sensor for hsa-mir-208a) | 55.5 |

Kindly review the next sequence as well.
Please fill in: apparent KD of MS2 coat protein reported for AGAAUGCACAUGAGGAUCACCCAUGUACCCGGCUGGCAUUUGCAGGAUAUGCCGCGGCGAGCCCAGCAGAAGGGCAAGUGCUAA [Eternabot solution 4] (Eterna round: R96, puzzle: Same State NG 3) = 19

====

# Tested on: MS2 coat protein
# method description: apparent KD of MS2 coat protein; higher = weaker reporter binding
# condition description: Eterna round: R107; input ligand: theophylline 2 mM
outcome measure: apparent KD of MS2 coat protein (nM)
Respond with the bare value in nM.

| residue string | apparent KD of MS2 coat protein, nM |
| --- | --- |
| UAUAUAGAAGGAUGUCAUAUAGAUGCAGAAGGAGCGUAGGAAACUACAGGUAGGUCGCUGAGGUACAUGAGGAUCACCCAUGUAG [SSArg A #17 Slice of Pi] | 45.5 |

In plain terms, ACGAUAGGACCUGAGGAUCACCCUGGUGAUACCAGCCUGGAAACAGGCCCUUGGCAGCACAAAUACUCCAAUAACCUAUCGAAUA [TheoAX 13 #MicroSwitchBubble #AlternativeMS2] has a documented apparent KD of MS2 coat protein of 1100

Briefly, apparent KD of MS2 coat protein measured for `UGUAUGGACUGAAGGAGCGGGUUGAUAACUUGAGGAUCACCCAGGUAAAAGGCGAAAGCCGCCCAGGUAGGUCGCAGUCCAUACU` : 61.7

Item: CUUGUUUAUGGAAGGAGCGCGAUUACAUAACAUGAGGAUCACCCAUGUAAGAAAUUAUUCAUGCAGGUAGGUCGCCAUGGGUGGG [Same State Arginine B GF7] | apparent KD of MS2 coat protein: 258

Value of measured apparent KD of MS2 coat protein for the entry AGCAGAUCCCAGCGAAAGCUGGGAUCUGCACGAGGACCGGUACGGCCGCCACUCGAGGACAUGAGGAUCACCCAUGUACCGGUCA [Glorfindel] : 238

GET /value?item= AUACAUGAGGAUCACCCAUGUCACACAGAAGGAGCGGCUGUAGAGCCAGGUAGGUCGCUGUACUGAAAAUACUUCAUACUCAUGU [#30 Exclusion - Arginine A] &field=apparent KD of MS2 coat protein returns 32.3
